The measured values listed here are drawn from patent US12612424B2.

# target: JAK3 (Homo sapiens)
# Construct: purchased Thermo fisher PV3855
# Sequence (P52333 781-1124 limits assumed): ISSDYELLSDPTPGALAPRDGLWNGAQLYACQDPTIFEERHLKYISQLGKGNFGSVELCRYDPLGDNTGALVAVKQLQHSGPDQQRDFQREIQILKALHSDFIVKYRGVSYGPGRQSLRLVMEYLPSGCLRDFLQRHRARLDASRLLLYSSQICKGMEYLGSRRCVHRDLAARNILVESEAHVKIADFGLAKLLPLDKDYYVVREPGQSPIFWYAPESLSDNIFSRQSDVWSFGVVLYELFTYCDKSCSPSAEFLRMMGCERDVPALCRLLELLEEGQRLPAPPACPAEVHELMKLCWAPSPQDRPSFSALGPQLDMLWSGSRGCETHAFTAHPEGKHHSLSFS
# protocol: JAK3 biochemical assay (ADP-GLO Kinase Assay)
# condition.context: ratio of JAK3 IC50 to HPK1 IC50; first testing facility
measurement.name: JAKs/HPK1 IC50 Ratio, B*

Solved entries:
• CCc1c[nH]c2ncc(-c3ccc(C)c(P(C)(C)=O)n3)cc12 = 44
• COc1cc2c(cc1Nc1ncc(Cl)c(-n3cc(CC(=O)O)c4cc(F)ccc43)n1)CN(C)CC2 = 382
• COc1cc2c(cc1Nc1ncc(Cl)c(N3CCc4cc(P(C)(C)=O)ccc43)n1)CN(C)CC2 = 67

A = CCc1c[nH]c2ncc(-c3ccc(C(F)F)c(P(C)(C)=O)c3)cc12
B = COc1cc2c(cc1Nc1ncc(Cl)c(N3CC(C(=O)NS(C)(=O)=O)c4ccccc43)n1)CN(C)CC2 (centres unmarked)
C = COc1cc2c(cc1Nc1ncc3ccc(=O)n(-c4ccccc4)c3n1)CN(C)CC2
D = COc1cc2c(cc1Nc1ncc(Cl)c(N3CC(C)(C(=O)O)c4cc(F)ccc43)n1)CN(C)CC2 (centres unmarked)
With regard to JAKs/HPK1 IC50 Ratio, B*, arrange the entries in ascending order, please. Put the labels in the requested order and write them down.
D, A, C, B
(D: 6, A: 15, C: 121, B: 508)

====

# target: JAK3 (Homo sapiens)
# Construct: purchased Thermo fisher PV3855
# protocol: JAK3 biochemical assay (ADP-GLO Kinase Assay)
# condition.context: B*: testing performed in a first testing facility; read-out: JAK3 IC50 (nM) Relative, B*
measurement.name: IC50

* COc1cc2c(cc1Nc1nccc(N3CC(C(=O)O)c4ccccc43)n1)CN(C)CC2 (centres unmarked) | > 1000 nM
* COc1cc2c(cc1Nc1ncc(Cl)c(-c3cncc4ccccc34)n1)CN(C)CC2 | > 1000 nM

Could you share which IC50 value was measured for COc1cc2c(cc1Nc1ncc(Cl)c(N3CC(C)(C(=O)O)c4ccc(F)cc43)n1)CN(C)CC2 (centres unmarked) ?
≤ 100 nM

What does the data say about its IC50? Entry: COc1cc2c(cc1Nc1ncc3c(n1)n(-c1ccccc1)c(=O)n3C)CN(C)CC2
> 1000 nM

Look up IC50 for this compound: COc1cc2c(cc1Nc1ncc(Cl)c(N3CCc4cc(Cl)ccc43)n1)CN(C)CC2
500 to 1000 nM

Endpoint output: IC50 of CCc1c[nH]c2ncc(-c3ccc(F)c(P(C)(C)=O)c3N)cc12 . Value?
> 1000 nM

Given the entry CN1CCc2ccc(Nc3ncc(Cl)c(N4CCc5ccccc54)n3)cc2C1 , report its measured IC50.
≤ 100 nM

Using the record for COc1cc2c(cc1Nc1ncc(Cl)c(N3CC(C)(CC(=O)O)c4ccccc43)n1)CNCC2 (centres unmarked) , report its IC50.
≤ 100 nM

====

# Test system: Human Pan T Cell (IL-2 release)
# protocol: IL2 released by human pan T cell upon anti-CD3/anti-CD28 stimulation (ELISA)
# Assay type: cell-based
# condition.context: Homo sapiens, T-cell, IL-2 response, human pan T cells, calculated with GraphPad Prism
measurement.name: EC50

Below: 5 compounds and their reported EC50.
- COc1cc2c(cc1Nc1ncc(Cl)c(N3CC(C)(CC(=O)O)c4cc(F)ccc43)n1)CN(C)CC2 (centres unmarked): ≤ 100 nM
- COc1cc2c(cc1Nc1ncc(Cl)c(-n3cnc4ccccc43)n1)CN(C)CC2: 100 to 500 nM
- COc1cc2c(cc1Nc1ncc(Cl)c(N3CC(CC(=O)O)c4ccccc43)n1)CN(C)CC2 (centres unmarked): 100 to 500 nM
- COc1cc2c(cc1Nc1ncc(Cl)c(N3CC(c4nn[nH]n4)c4ccccc43)n1)CN(C)CC2 (centres unmarked): > 1000 nM
- COc1cc2c(cc1Nc1ncc(Cl)c(N3CCc4ccccc43)n1)CN(C(C)C)CC2: 500 to 1000 nM

Entry under review: COc1cc2c(cc1Nc1ncc(Cl)c(N3CC(C)(CC(=O)O)c4cc(F)c(F)cc43)n1)CN(C)CC2 (centres unmarked) . Reported EC50?
≤ 100 nM

Sample CNC(=O)Cc1cn(-c2nc(Nc3cc4c(cc3OC)CCN(C)C4)ncc2Cl)c2ccccc12 — what was its EC50?
500 to 1000 nM

I'd like to know its EC50. The compound in question is COc1cc2c(cc1Nc1ncc(Cl)c(N3CC(C)(CC(=O)O)c4ccccc43)n1)CN(C)C2 (centres unmarked)
≤ 100 nM
